Biological target: T1, recombinant human ASM protein (human, UniProt P17405 47-630)
T1 construct: Recombinant human ASM in solution; also called acid sphingomyelinase (ASM) protein
T1 sequence: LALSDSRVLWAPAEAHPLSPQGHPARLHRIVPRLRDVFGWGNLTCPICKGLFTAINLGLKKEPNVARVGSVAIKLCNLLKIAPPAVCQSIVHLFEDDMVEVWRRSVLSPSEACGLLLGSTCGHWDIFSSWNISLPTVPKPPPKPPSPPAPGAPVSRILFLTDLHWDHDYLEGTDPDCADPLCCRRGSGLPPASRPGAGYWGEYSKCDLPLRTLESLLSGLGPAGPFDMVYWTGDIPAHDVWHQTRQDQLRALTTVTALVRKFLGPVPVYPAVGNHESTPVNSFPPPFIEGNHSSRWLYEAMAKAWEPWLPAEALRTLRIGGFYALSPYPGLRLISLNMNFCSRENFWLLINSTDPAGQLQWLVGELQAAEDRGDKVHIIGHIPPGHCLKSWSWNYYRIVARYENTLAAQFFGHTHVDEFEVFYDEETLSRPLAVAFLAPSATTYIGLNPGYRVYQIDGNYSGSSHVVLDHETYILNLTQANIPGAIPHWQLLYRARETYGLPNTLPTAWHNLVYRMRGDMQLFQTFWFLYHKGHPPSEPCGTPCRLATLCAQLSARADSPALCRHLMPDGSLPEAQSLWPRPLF
Assay: BLI (Octet), antibody on AHC sensor

>  <binder>
#9104a-C4 (antibody, human IgG4 S228P, lambda, V domains shown, VH of #9104v-H17 with VL of #9104v-L23; full-length IgG, lambda) VH: EVQLLESGGGLVQPGGSLRLSCAASGFTFSNYYMSWVRRAPGKGLEWVSGIYYGSGTPYYAASVKGRFTISRDNSKNTLYLQMNSLRAEDTAVYYCARDTPGFDYWGQGTLVTVSS VL: QSVLTQPPSASGTPGQRVTISCTGSSSNIGNNAVNWYQQLPGTAPKLLIYYDQFRPSGVPDRFSGSKSGTSASLAISGLRSEDEADYYCGAWDYSLSAYVFGGGTKLTVLG

>  <koff / s⁻¹>
6.42e-05

$$$$
>  <binder>
#9104a-B7 (antibody, human IgG4 S228P, lambda, V domains shown, VH of #9104v-H31 with VL of #9104v-L21; full-length IgG, lambda) VH: EVQLLESGGGLVQPGGSLRLSCAASGFTFSNYYMSWVRQAPGKGLEWVSGVYYGSGTPYYADSVKGRFTISRDNSKNTLYLQMNSLRAEDTAVYYCARDTPGFDYWGQGTLVTVSS VL: QSVLTQPPSASGTPGQRVTISCTGSSSNIGNNAVNWYQQLPGTAPKLLIYYDMFRPNGVPDRFSGSKSGTSASLAISGLRSEDEADYYCGAWDYSLSAYVFGGGTKLTVLG

>  <koff / s⁻¹>
4.07e-05

$$$$
>  <binder>
#9104a-E6 (antibody, human IgG4 S228P, lambda, V domains shown, VH of #9104v-H27 with VL of #9104v-L65; full-length IgG, lambda) VH: EVQLLESGGGLVQPGGSLRLSCAASGFTFSNYYMSWVRQAPGKGLEWVSGTYYDSGYVYYADSVKGRFTISRDNSKNTLYLQMNSLRAEDTAVYYCARDTPGFDYWGQGTLVTVSS VL: QSVLTQPPSASGTPGQRVTISCTGSSSNIGNNAVNWYQQLPGTAPKLLIYYDYYQSSGVPDRFSGSKSGTSASLAISGLRSEDEADYYCGAWDYSLSAYVFGGGTKLTVLG

>  <koff / s⁻¹>
7.77e-05

$$$$
